Biological target: 6×HIS-tankyrase 1 (1091-1325) (Homo sapiens (Human), UniProt O95271)
Sequence (O95271 1091-1325): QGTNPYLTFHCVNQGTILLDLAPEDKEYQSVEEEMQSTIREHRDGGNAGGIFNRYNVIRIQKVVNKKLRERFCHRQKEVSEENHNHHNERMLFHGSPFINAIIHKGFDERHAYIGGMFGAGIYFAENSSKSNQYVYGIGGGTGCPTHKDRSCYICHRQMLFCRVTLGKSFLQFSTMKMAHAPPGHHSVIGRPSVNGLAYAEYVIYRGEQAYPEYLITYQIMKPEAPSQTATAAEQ
Experiment: biochemical
Assay type: biochemical
Settings: […] enzyme, 400 nM NAD, 60 minutes at room temperature; read-out: TNKS1 IP IC50
Ranges used to classify IC50: lowest: < 0.09 µM; middle: ≥ 0.09 µM and < 0.5 µM; highest: ≥ 0.5 µM

MOLECULE	LABEL_CLASS
CC1(c2ccccc2)CN([C@H]2CC[C@H](n3c(=O)[nH]c4cnccc43)CC2)C(=O)O1 (stereo partly drawn)	lowest
CC1(C)OC(=O)N(c2ccc(C(=O)Nc3cccc4cccnc34)cc2)C1c1ccccc1F (stereo not drawn)	middle
CC1(C)OC(=O)N(c2ccc(-c3cc(-c4ccccn4)c[nH]c3=O)cc2)[C@H]1c1ccccc1	middle
CC1(C)OC(=O)N([C@H]2CC[C@H](NC(=O)c3csc(-c4ncccn4)n3)CC2)[C@H]1c1ccccc1	lowest
CC1(C)OC(=O)N([C@H]2CC[C@H](c3nnc(-c4ccccc4)o3)CC2)C1c1ccccc1 (stereo partly drawn)	middle
CC1(C)OC(=O)N(c2ccc(C(=O)Nc3cccc4cccnc34)cc2)[C@H]1c1ccncc1	middle
CC1(C)OC(=O)N([C@H]2CC[C@H](NC(=O)c3ccnc4[nH]ccc34)CC2)[C@H]1c1ccccc1	middle
CC1(C)OC(=O)N(c2ccc(-n3c(=O)[nH]c4cnccc43)cc2)[C@H]1c1ccccc1	middle
CCC1(CC)OC(=O)N(c2ccc(C(=O)Nc3cccc4cccnc34)cc2)[C@H]1c1ccccc1	highest
Cn1cc2cccc(C(=O)N[C@H]3CC[C@H](N4C(=O)OC(C)(C)[C@@H]4c4ccccc4)CC3)c2n1	lowest
CC1(C)OC(=O)N(c2ccc3c(c2)CCN(c2cccc4cccnc24)C3=O)[C@H]1c1ccccc1	highest
CC1(C)OC(=O)N([C@H]2CC[C@H](c3cnc(N)c(C4=NCCCN4)c3)CC2)[C@H]1c1ccccc1	highest
CC1(C)OC(=O)N([C@H]2CC[C@H](c3cnc(N)c(C#N)c3)CC2)[C@H]1c1ccccc1	lowest
COc1cccc([C@H]2N(c3ccc(C(=O)Nc4cccc5cccnc45)cc3)C(=O)OC2(C)C)c1	highest
